molecular target: human ether-à-go-go-related gene (hERG) potassium channel (human); assay: primary screen, population patch clamp on CHO cells stably expressing hERG; higher = less effect of the substance;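 note: peak tail current of the secondary pulse compared with the same well before compound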
Sequence (Q12809 whole entry, looked up): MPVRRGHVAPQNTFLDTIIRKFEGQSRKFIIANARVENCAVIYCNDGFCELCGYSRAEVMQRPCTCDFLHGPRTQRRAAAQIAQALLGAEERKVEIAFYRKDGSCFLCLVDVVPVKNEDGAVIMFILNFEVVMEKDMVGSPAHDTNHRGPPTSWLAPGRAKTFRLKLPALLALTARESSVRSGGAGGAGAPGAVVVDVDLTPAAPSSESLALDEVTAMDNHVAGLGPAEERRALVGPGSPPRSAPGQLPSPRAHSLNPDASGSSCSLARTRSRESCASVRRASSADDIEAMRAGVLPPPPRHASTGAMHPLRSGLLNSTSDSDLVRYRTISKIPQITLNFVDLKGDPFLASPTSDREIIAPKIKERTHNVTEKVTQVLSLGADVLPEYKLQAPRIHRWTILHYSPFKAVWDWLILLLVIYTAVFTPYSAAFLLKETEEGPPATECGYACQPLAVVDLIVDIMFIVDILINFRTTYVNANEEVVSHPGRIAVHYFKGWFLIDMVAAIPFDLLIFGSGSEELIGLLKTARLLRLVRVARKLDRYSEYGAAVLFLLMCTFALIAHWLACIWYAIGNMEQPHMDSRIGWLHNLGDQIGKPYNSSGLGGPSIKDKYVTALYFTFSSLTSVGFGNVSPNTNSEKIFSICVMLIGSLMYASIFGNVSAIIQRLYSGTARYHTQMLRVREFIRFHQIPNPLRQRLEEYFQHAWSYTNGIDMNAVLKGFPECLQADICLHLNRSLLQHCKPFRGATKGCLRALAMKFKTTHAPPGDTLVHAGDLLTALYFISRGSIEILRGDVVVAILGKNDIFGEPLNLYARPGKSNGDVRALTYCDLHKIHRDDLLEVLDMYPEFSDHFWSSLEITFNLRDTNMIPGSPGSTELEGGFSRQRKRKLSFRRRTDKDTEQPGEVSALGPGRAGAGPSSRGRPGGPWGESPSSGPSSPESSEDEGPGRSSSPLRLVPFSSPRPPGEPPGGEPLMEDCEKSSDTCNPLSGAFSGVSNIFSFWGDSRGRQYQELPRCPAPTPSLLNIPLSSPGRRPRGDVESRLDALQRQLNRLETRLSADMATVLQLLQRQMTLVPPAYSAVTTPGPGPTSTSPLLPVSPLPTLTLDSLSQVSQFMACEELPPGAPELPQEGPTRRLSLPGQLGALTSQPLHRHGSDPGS
The whole screen tested about 310,000 compounds, of which about 14,000 (4.5%) showed an effect of 50% or more. The effect is printed as a negative number. Shown is part of a subset that was picked to be rich in strong results.
Measured metric: hERG current change (%, negative = inhibition) at 10uM (%)
Numbers only; they are read as %.

Compound structure string	Result units	Meas value
CCOC(=O)c1nc2nc(C)c(Cl)c(=O)n2[nH]1	%	0.341

Exam item: Quick one: hERG current change (%, negative = inhibition) at 10uM for CN(C)c1ccc(C(=O)c2ccccc2C(=O)O)c(O)c1 ?
Marked response: 12.7

Exam item: Quick one: hERG current change (%, negative = inhibition) at 10uM for COc1ccc(N(CC(=O)O)S(=O)(=O)c2ccc(OC)c(OC)c2)cc1 ?
Marked response: -29.6

Exam item: Quick one: hERG current change (%, negative = inhibition) at 10uM for CCN(CC)c1ccc(C(=O)c2ccccc2C(=O)O)c(O)c1 ?
Marked response: 3.8

Exam item: Quick one: hERG current change (%, negative = inhibition) at 10uM for O=c1c(-c2ccc(Br)cc2)coc2c(CN3CCOCC3)c(O)ccc12 ?
Marked response: -20.7
